Molecular target: T1, RBFOX1 RRM RbFoxmut (Fox-RRM*) (Homo sapiens, UniProt Q9NWB1 109-208, R118D;E147R;N151S;E152T)
T1 sequence: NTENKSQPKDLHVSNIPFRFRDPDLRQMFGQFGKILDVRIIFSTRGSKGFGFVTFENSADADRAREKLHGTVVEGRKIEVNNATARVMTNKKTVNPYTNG
Test: EMSA; HiTS-Eq, 1 nM pool, 10 min; buffer printed only for the single-RNA assays: 10 mM Tris pH 7.5, 150 mM NaCl, 3.4 mM EDTA, 0.001% NP-40, 30 C
Settings: tags: His6 N-terminal (pET28a); label: 5' 32P
The full ranking holds about 16,000 sequences; the median of “ka relative to ugcaugu” is about 0.096, and the highest 2% start at about 0.35. What follows is part of a selection rich in the highest values, with near analogues and random picks from the rest.
Reported Metric: binding signal

{"Binder": "CUUGAUA (DNA:RNA) RNA: GGGAGACCGGAAUUCAGAUUGUCCCUUGAUAUUAAAUCCCGUCGUAGCCACCA DNA 1: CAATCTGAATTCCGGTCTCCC DNA 2: TGGTGGCTACGACGGGATT", "binding signal": "0.134 KA relative to UGCAUGU"}
{"Binder": "GUCCGCC (DNA:RNA) RNA: GGGAGACCGGAAUUCAGAUUGUCCGUCCGCCUUAAAUCCCGUCGUAGCCACCA DNA 1: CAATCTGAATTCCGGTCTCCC DNA 2: TGGTGGCTACGACGGGATT", "binding signal": "0.105 KA relative to UGCAUGU"}
{"Binder": "UAACCGA (DNA:RNA) RNA: GGGAGACCGGAAUUCAGAUUGUCCUAACCGAUUAAAUCCCGUCGUAGCCACCA DNA 1: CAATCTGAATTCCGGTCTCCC DNA 2: TGGTGGCTACGACGGGATT", "binding signal": "0.0866 KA relative to UGCAUGU"}

Provide binding signal for all items below, preserving their order.
1. UCGGAUG (DNA:RNA) RNA: GGGAGACCGGAAUUCAGAUUGUCCUCGGAUGUUAAAUCCCGUCGUAGCCACCA DNA 1: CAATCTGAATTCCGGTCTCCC DNA 2: TGGTGGCTACGACGGGATT
2. ACUUCCA (DNA:RNA) RNA: GGGAGACCGGAAUUCAGAUUGUCCACUUCCAUUAAAUCCCGUCGUAGCCACCA DNA 1: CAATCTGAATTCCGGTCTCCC DNA 2: TGGTGGCTACGACGGGATT
3. CACGUCU (DNA:RNA) RNA: GGGAGACCGGAAUUCAGAUUGUCCCACGUCUUUAAAUCCCGUCGUAGCCACCA DNA 1: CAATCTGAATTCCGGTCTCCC DNA 2: TGGTGGCTACGACGGGATT
4. CCCUUUC (DNA:RNA) RNA: GGGAGACCGGAAUUCAGAUUGUCCCCCUUUCUUAAAUCCCGUCGUAGCCACCA DNA 1: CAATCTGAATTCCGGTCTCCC DNA 2: TGGTGGCTACGACGGGATT
5. UGACGAC (DNA:RNA) RNA: GGGAGACCGGAAUUCAGAUUGUCCUGACGACUUAAAUCCCGUCGUAGCCACCA DNA 1: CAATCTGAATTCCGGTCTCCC DNA 2: TGGTGGCTACGACGGGATT
6. CACACCG (DNA:RNA) RNA: GGGAGACCGGAAUUCAGAUUGUCCCACACCGUUAAAUCCCGUCGUAGCCACCA DNA 1: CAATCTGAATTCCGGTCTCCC DNA 2: TGGTGGCTACGACGGGATT

Solution:
["0.119 KA relative to UGCAUGU", "0.0542 KA relative to UGCAUGU", "0.0849 KA relative to UGCAUGU", "0.0564 KA relative to UGCAUGU", "0.069 KA relative to UGCAUGU", "0.12 KA relative to UGCAUGU"]
